experiment: endothelial E-selectin expression blockers – imaging, HUVEC, immunofluorescence, MLSMR starter and 10KST1 sets, primary screen (AID 487); conditions: HUVEC TNFalpha-induced E-selectin immunofluorescence imaging, at 2 µM; active compounds read high;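 also: signal is fraction of cell area covered by stained E-selectin grains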
Recorded measurements of inhibition, one per entry
# output: bare number, implied unit %

Some compounds with recorded inhibition:
>  <compound>
Cc1ccc(-c2nnc(SC(C)C#N)n2N)cc1 (centres undefined)

>  <inhibition [%]>
-93.5

$$$$
>  <compound>
c1cc(C(c2nnnn2C2CCCC2)N2CCOCC2)ccn1 (centres undefined)

>  <inhibition [%]>
38.6

$$$$
>  <compound>
COC(=O)c1cnn2c(C(F)(F)F)cc(-c3ccco3)nc12

>  <inhibition [%]>
42.4

$$$$
>  <compound>
O=c1c2nnn(Cc3ccc(Cl)cc3)c2ncn1Cc1ccc(F)cc1

>  <inhibition [%]>
-19.2

$$$$
>  <compound>
CC(=O)c1ccc(OCC(O)CN2CCN(Cc3ccc4c(c3)OCO4)CC2)cc1 (centres undefined)

>  <inhibition [%]>
-33.9

$$$$

Please report the recorded inhibition for CCOC(=O)c1[nH]c(C)c(C(=O)N2CCN(c3ccc(F)cc3)CC2)c1C .
-175

Next entry: Cc1cc(C)nc(SCc2nnc(SCC(=O)Nc3ncc(C)s3)n2Cc2ccco2)n1
-23.5

Check CCS(=O)(=O)c1nc2ccccc2n1CC(=O)N1CCCCC1 too.
-32.9

Same question for OCc1nc2ccccc2n1CCCOc1ccccc1 please.
-17.2

Field entry: CCOC(=O)c1ccc(NC(=O)CSc2nnc(COc3ccccc3)n2C)cc1
-25.8

Moving on to the next compound: CCOc1ccccc1C(=O)NCC(=O)OCC(=O)N1C(C)CCCC1C (centres undefined)
26.6

Record: O=C(Nc1ccc2oc(-c3ccncc3)nc2c1)c1cccs1
14.7

Try this compound too: CCOC(=O)C1CCCN(C(=O)Cc2ccc(OC)c(OC)c2)C1 (centres undefined)
-124

// query: Cc1cc(Cl)ccc1NC(=O)CSc1nnc(Cc2cccs2)n1Cc1ccco1
-32.8

---

experiment: inhibitors of TNFa-induced NFkB p65 translocation, primary screen, imaging, HUVEC, MLSMR starter and 10KST1 sets (AID 438); settings: HUVEC TNFa-induced p65 nuclear translocation; at 2 µM, active compounds read high, 0% TNFa-plus-vehicle, 100% no-TNFa wells;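 also: compound added about 3h40 before a 20 min TNFalpha stimulation; signal is the nuclear over cytoplasmic p65 intensity ratio per well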
quantity.measured: inhibition (%)
Please reply with the bare figure in % and do not write the unit itself.

>  <compound>
CCn1c(SCc2nc(-c3cccs3)no2)nnc1-c1c[nH]c2ccccc12

>  <value.unit>
%

>  <assay.value>
3.4

$$$$
>  <compound>
COC(=O)c1cc(-c2c(C)nn(-c3ccccc3)c2C)n[nH]1

>  <value.unit>
%

>  <assay.value>
1.1

$$$$
>  <compound>
Cn1c(COc2ccccc2)nnc1SCC(=O)Nc1ccc(N2CCOCC2)c(Cl)c1

>  <value.unit>
%

>  <assay.value>
-6.9

$$$$
>  <compound>
COc1ccc(Br)cc1C(=O)Nc1nnn(C)n1

>  <value.unit>
%

>  <assay.value>
6.7

$$$$
>  <compound>
Cc1ccccc1-c1nc(CN2CCC(C(=O)NCCCN3CCCC3)CC2)c(C)o1

>  <value.unit>
%

>  <assay.value>
0

$$$$
>  <compound>
CCC(=O)N/C(N)=N/c1nc(C)c2cc(OC)ccc2n1

>  <value.unit>
%

>  <assay.value>
10.7

$$$$
>  <compound>
O=S(=O)(c1cccc(S(=O)(=O)N2CCC(N3CCCCC3)CC2)c1)N1CCOCC1

>  <value.unit>
%

>  <assay.value>
-4.8

$$$$
>  <compound>
Cc1cc(S(=O)(=O)N2CCN(c3ccccc3C)CC2)ccc1F

>  <value.unit>
%

>  <assay.value>
-8.1

$$$$
>  <compound>
CC(C)(C)c1ccc(OCC(=O)O)cc1

>  <value.unit>
%

>  <assay.value>
3.1

$$$$
>  <compound>
O=C(Nc1cccc(NC(=O)c2ccco2)c1)c1ccc2c(c1)OCO2

>  <value.unit>
%

>  <assay.value>
-6.1

$$$$

Give its inhibition value. Item: CCOC(=O)N1CCC(NC(=O)C2CCCN(C(=O)c3cc4sccc4n3C)C2)CC1 (centres undefined)
-5.8

Try this compound too: COc1ccc(-c2noc(COc3ccc(Cl)c(C)c3)n2)cc1
11.9

Field entry: COc1cc(S(=O)(=O)NC2CCCCC2C)ccc1Cl (centres undefined)
4.8

Also Cc1cccc(-n2ncc3c(NCc4ccccn4)ncnc32)c1 ?
-16.8

Lookup COc1ccc(-c2c3c(=O)n(C)c(=O)n(C)c3cn2-c2cccc(OC)c2)cc1
5.2

Queued: COc1ccc(CC(=O)NCc2cccs2)cc1
-20.6

Note, next up: Cc1cc(C)n(CCCNC(=O)c2ccc3c(c2)NC(=O)CS3)n1
-0.6

For O=C(Nc1ccc(Cl)cc1)N1CCSCC1 then?
6.3

Proceed to COc1ccc(CCN2C(=O)C3C4C=CC(C4)C3C2=O)cc1OC (centres undefined)
-3.8

Now try O=S(=O)(NCCCCCNS(=O)(=O)c1ccccc1)c1ccccc1 .
4.3

What do you get for Cc1cc(C)nc(N2CCC(C(=O)Nc3ccc(Oc4ccccc4)cc3)CC2)n1 ?
-15

Another: O=C(Cn1c(=O)oc2ccccc21)N1CCN(c2ccccc2)CC1
2.6

Now consider CC(C(=O)OCn1nnc2ccccc2c1=O)N1C(=O)c2ccccc2C1=O (centres undefined) .
-15.6

Follow-up item: O=C(NC1CCCC1)C(NS(=O)(=O)c1cccc2nsnc12)c1ccccc1 (centres undefined)
-16.3
